- TEST_NAME: binders of probe aFGF2 on microarray, primary screen, stem cell growth factor project, biochemical, small-molecule microarray, fluorescence 635/667 (AID 1067);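 also: measures binding of biotinylated aFGF2 protein to printed compounds on slides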
- ASSAY_SETUP: higher = more signal
// not fulfilled strictly below 0.06 in composite z-score; fulfilled otherwise

[
  {
    "COMPOUND": "CC[C@@H](O[Si](C#C[Si](C(C)C)(C(C)C)C(C)C)(C(C)C)C(C)C)c1cn([C@H](CO)Cc2ccccc2)nn1",
    "LABEL_VALUE": "not fulfilled"
  },
  {
    "COMPOUND": "C=CC[C@H](O)c1ccc(O)c2ccccc12",
    "LABEL_VALUE": "not fulfilled"
  },
  {
    "COMPOUND": "O=C1NC(=O)C2C1C=CC(C(O)c1ccc(F)cc1)N2Nc1ccc(Cl)cc1Cl (stereo not drawn)",
    "LABEL_VALUE": "fulfilled"
  },
  {
    "COMPOUND": "COCCCNC(=O)[C@@]1(Cc2ccccc2I)c2ccccc2C(=O)N(Cc2ccccc2OC)[C@H]1c1ccc(CO)cc1",
    "LABEL_VALUE": "fulfilled"
  },
  {
    "COMPOUND": "CCCCN1CC=CC23O[C@@H]4/C=C\\CCC(C)OC(=O)C4[C@H]2C(=O)N(CCO)[C@@H]3C1=O (stereo partly drawn)",
    "LABEL_VALUE": "not fulfilled"
  },
  {
    "COMPOUND": "CN1C2C=C(c3ccc(CO)cc3)C(C3C(=O)N(C(N)=O)C(=O)C32)C1C1CC1 (stereo not drawn)",
    "LABEL_VALUE": "not fulfilled"
  },
  {
    "COMPOUND": "COc1cccc(C)c1NC(=O)O[C@H]1[C@H](OC(=O)Nc2ccccc2-c2ccccc2)[C@@H](OC(=O)Nc2ccccc2-c2ccccc2)[C@@H](OC)O[C@@H]1CO",
    "LABEL_VALUE": "fulfilled"
  }
]
